- Tgt: rhesus (Macacca Mulatta) H3 receptor (Macaca mulatta, UniProt Q865E1)
- Construct: 445 amino acid H3 receptor
- Sequence (Q865E1 1-445): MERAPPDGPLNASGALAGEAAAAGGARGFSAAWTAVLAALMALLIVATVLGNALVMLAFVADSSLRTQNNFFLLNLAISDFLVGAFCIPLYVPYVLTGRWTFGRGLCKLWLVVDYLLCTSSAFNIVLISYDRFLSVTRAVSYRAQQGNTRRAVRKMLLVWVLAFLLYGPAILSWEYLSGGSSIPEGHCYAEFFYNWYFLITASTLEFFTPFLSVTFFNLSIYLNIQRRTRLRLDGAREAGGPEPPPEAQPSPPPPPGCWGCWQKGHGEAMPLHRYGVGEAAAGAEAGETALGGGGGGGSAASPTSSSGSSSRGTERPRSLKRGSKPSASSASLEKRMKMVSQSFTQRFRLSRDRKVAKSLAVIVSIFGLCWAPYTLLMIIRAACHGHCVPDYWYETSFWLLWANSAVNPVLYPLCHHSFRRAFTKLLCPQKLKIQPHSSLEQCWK
- Run Description: Rhesus H3 [3H]-Methylhistamine radioligand binding assay (SPA)
- Condition Notes: [3H]-Methylhistamine 2 nM, rhesus H3 membranes, Cheng-Prusoff
Measure Name: Ki (nM)

Reference set (2 entries):
INSERT INTO measurements (structure, reported_measurement) VALUES
  ('C[C@H]1CCCN1[C@H]1CCN(c2ccc3c(c2)CCN(CC2CCCC2)C3)C1', 1.2),
  ('C[C@H]1CCCN1[C@H]1CCN(c2ccc3c(c2)CCN(C(=O)c2cc4c(ccn4CCOC[Si](C)(C)C)s2)C3)C1', 22);

[I] C[C@H]1CCCN1[C@H]1CCN(c2ccc3c(c2)CCN(C2CCOCC2)C3=O)C1
[II] COc1cccc(S(=O)(=O)N2CCc3cc(N4CC[C@H](N5CCC[C@@H]5C)C4)ccc3C2)c1.O=C(O)C(F)(F)F
[III] C[C@H]1CCCN1[C@H]1CCN(c2ccc3c(c2)CCN(C(=O)C2CCCC2)C3)C1
[IV] C[C@H]1CCCN1[C@H]1CCN(c2ccc3c(c2)CCN(C(=O)C2CCCCC2)C3)C1
input: Endpoint returns the given compounds ordered by ascending Ki. Reply with the item labels sorted in the order that was asked for.
output: IV, III, I, II
(IV: 0.094 nM, III: 0.15 nM, I: 1.2 nM, II: 25 nM)

###

- Tgt: rhesus H3 (Macaca mulatta, UniProt Q865E1)
- Construct: 445 amino acid H3 receptor; expressed in transfected cells; host or cells: Flp-In T-REx 293 Cell Line (Invitrogen), pcDNA5/FRT/TO, induced with tetracycline
- Sequence (Q865E1 1-445): as above
- Run Description: GTPγS radioligand binding assay, rhesus H3 constitutive functional activity in cell membranes
- Type: biochemical, rhesus monkey (Macacca Mulatta)
- Condition Notes: relative to basal levels
- Procedure: Rhesus H3 membranes were prepared from the Flp-In T-REx 293 Cell Line (Invitrogen) stably transfected with pcDNA5/FRT/TO (Invitrogen) containing the rhesus monkey (Macacca Mulatta) 445 amino acid H3 receptor. (Genbank #AY231164). Stably transfected cultures were amplified in tissue culture flasks by standard tissue culture methods and induced to express rhesus H3 by exposure to 500 ng/ml tetracycline (Cellgro) for 24 hours. […]
Measure Name: GTPγS-35 ASSAY % Inverse Agonism (%)

Reference set (2 entries):
INSERT INTO assay_data (molecule, measure_name, readout_units, reported_measurement) VALUES
  ('COc1ccc(C(=O)N2CCc3cc(N4CC[C@H](N5CCC[C@@H]5C)C4)ccc3C2)cc1 [Example 12]', 'GTPγS-35 ASSAY % Inverse Agonism', '%', '−26.1'),
  ('CC(C)N1CCc2cc(N3CC[C@H](N4CCC[C@@H]4C)C3)ccc2C1 [Example 10]', 'GTPγS-35 ASSAY % Inverse Agonism', '%', '−9.3');

[P] C[C@H]1CCCN1[C@H]1CCN(c2ccc3c(c2)CCN(C(=O)C2CCCC2)C3)C1 [Example 21]
[Q] CCOC(=O)N1CCc2cc(N3CC[C@H](N4CCC[C@@H]4C)C3)ccc2C1 [Example 25]
input: From the recorded data, which exceeds the other in GTPγS-35 ASSAY % Inverse Agonism: P or Q ? Kindly give the label for the entry you pick.
output: Q

###

- Tgt: rhesus H3 (Macaca mulatta)
- Construct: 445 amino acid H3 receptor; expressed in transfected cells; host or cells: Flp-In T-REx 293 Cell Line (Invitrogen), pcDNA5/FRT/TO, induced with tetracycline
- Run Description: GTPγS radioligand binding assay, rhesus H3 constitutive functional activity in cell membranes
- Type: biochemical, rhesus monkey (Macacca Mulatta)
- Condition Notes: relative to basal levels
Measure Name: GTPγS-35 ASSAY % Inverse Agonism (%)

Reference set (3 entries):
INSERT INTO results (molecule, readout_units, reported_measurement) VALUES
  ('COc1cccc(NC(=O)N2CCc3cc(N4CC[C@H](N5CCC[C@@H]5C)C4)ccc3C2)c1 [Example 23]', '%', '−22.5'),
  ('C[C@H]1CCCN1[C@H]1CCN(c2ccc3c(c2)CCN(C(=O)C2CCOCC2)C3)C1 [Example 19]', '%', '−17.4'),
  ('C[C@H]1CCCN1[C@H]1CCN(c2ccc3c(c2)CCN(C(=O)c2ccccc2)C3)C1 [Example 16]', '%', '−18.9');

[1] C[C@H]1CCCN1[C@H]1CCN(c2ccc3c(c2)CCN(C(=O)c2ccoc2)C3)C1 [Example 15]
[2] C[C@H]1CCCN1[C@H]1CCN(c2ccc3c(c2)CCN(Cc2ccc(F)cc2)C3)C1 [Example 9]
input: Field: lower recorded GTPγS-35 ASSAY % Inverse Agonism (choose 1 or 2 ) Kindly give the label for the entry you pick.
output: 1
